B1: Cold shock protein CspB, residues 1 to 66; numbered along this chain, P41016 (parent)
chain: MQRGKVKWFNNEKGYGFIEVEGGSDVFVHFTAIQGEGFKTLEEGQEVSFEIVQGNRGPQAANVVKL

- Variants of: B1
- EXPERIMENT_DESCRIPTION: abundance fitness (aPCA) (normalised: wild type 0, dead -1); higher = more abundant; growth selection in yeast, the domain comes from the species named
- CONDITION_SUMMARY: Bacillus caldolyticus
QUANTITY: abundance fitness
Form rule: numeric answer, no unit written next to it.

// query Identify abundance fitness associated with the variant T31H
// result -0.074

// query Identify abundance fitness associated with the variant F9Q
// result -0.854

// query Identify abundance fitness associated with the variant E46M
// result 0.006

// query Identify abundance fitness associated with the variant G35L
// result -0.127

// query Identify abundance fitness associated with the variant G4C
// result -0.905

// query Identify abundance fitness associated with the variant Q2V
// result 0.018

// query Identify abundance fitness associated with the variant K39C
// result -0.08

// query Identify abundance fitness associated with the variant K39W
// result -0.194

// query Identify abundance fitness associated with the variant I33R
// result -0.484

// query Identify abundance fitness associated with the variant Q45F
// result -0.097

// query Identify abundance fitness associated with the variant Q45R
// result -0.039

// query Identify abundance fitness associated with the variant V6W
// result -0.756

// query Identify abundance fitness associated with the variant L41V
// result -0.042

// query Identify abundance fitness associated with the variant G22E
// result -0.013

// query Identify abundance fitness associated with the variant G16S
// result -1.01

// query Identify abundance fitness associated with the variant I18C
// result -0.164

// query Identify abundance fitness associated with the variant F17W
// result -0.084
